The measured values listed here are drawn from patent US11365196B2.

target: FGFR2 (Homo sapiens (Human), UniProt P21802); assay: Kinase assay Method 2, isotope-labeled 33P-ATP method; format: biochemical; details: ATP at Km, filter-binding, read-out: IC50(nM) value of compounds, FGFR2
Sequence (P21802 22-821): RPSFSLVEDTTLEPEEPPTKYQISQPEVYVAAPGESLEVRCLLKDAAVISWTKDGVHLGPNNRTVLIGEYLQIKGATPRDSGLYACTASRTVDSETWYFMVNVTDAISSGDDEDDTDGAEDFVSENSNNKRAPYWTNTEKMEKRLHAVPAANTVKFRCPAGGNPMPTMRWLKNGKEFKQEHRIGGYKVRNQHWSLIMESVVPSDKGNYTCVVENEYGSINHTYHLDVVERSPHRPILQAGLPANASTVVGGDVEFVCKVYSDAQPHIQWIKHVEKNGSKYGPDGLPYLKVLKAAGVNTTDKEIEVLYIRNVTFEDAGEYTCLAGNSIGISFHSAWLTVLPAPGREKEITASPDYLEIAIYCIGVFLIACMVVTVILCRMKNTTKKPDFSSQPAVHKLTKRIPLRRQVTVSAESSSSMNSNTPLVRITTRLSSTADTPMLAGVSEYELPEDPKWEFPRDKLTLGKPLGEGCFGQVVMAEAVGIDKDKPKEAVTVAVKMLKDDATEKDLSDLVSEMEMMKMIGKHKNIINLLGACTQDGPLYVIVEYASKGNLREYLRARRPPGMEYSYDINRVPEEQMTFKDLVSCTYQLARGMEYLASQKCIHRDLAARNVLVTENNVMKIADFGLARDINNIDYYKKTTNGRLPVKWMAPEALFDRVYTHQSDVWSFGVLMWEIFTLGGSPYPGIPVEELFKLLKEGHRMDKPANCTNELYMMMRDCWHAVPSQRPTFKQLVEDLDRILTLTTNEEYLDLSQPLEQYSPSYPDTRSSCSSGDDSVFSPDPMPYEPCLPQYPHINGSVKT
value kind: IC50 (nM)
The answer is to be given in nM; state only the numeric part.

Form: molecule = CCN1CCN(c2ccc(Nc3ncc4cc(-c5cc(OC)cc(OC)c5Cl)c5nncn5c4n3)cc2)CC1 [Compound 4] ; IC50 = 0.16

---

biological target: UniProt P11362; test: Kinase assay Method 1, mobility shift assay; settings: read-out: IC50(nM) value of compounds FGFR1; mobility shift assay, ATP at Km; class symbols
For each entry below, report its IC50 value.

According to the records, this compound COc1cc(OC)c(Cl)c(-c2cc3cnc(Nc4ccc(N5CC6(CN(C(=O)N(C)C)C6)C5)cc4)nc3n3cnnc23)c1 [Compound 108] displays IC50 of > 10 nM

IC50 measured on C=CC(=O)N1CCN(CCCc2nnc3c(-c4cc(OC)cc(OC)c4Cl)cc4cnc(NC)nc4n23)CC1 [Compound 113] = > 10 nM

Record COc1cc(OC)c(Cl)c(-c2cc3cnc(Nc4ccc(N5CCN(C(=O)N(C)C)CC5)cc4)nc3n3cnnc23)c1 [Compound 107] , field IC50: < 1 nM

Measured IC50, COc1cc(OC)c(Cl)c(-c2cc3cnc(Nc4ccc(N5CCN(C(C)C)CC5)cc4)nc3n3cnnc23)c1 [Compound 11] : < 1 nM

---

test system: NCI-H1581 cells; assay: Cell proliferation assay on NCI-H1581 (Table 7); type: cell-based, human; details: Homo sapiens, NCI-H1581; CellTiter 96 AQueous (144 hrs) or CellTiter Glo (96 hrs); class symbols; read-out: IC50(nM) value of compounds on NCI-H1581 cells
value kind: IC50

Item: COc1cc(OC)c(Cl)c(-c2cc3cnc(Nc4ccc(C5CCNCC5)c(C)c4)nc3n3cnnc23)c1 [Compound 52] | IC50: < 1 nM

// COc1cc(OC)c(Cl)c(-c2cc3cnc(Nc4ccc(OCCN5CCOCC5)cc4)nc3n3cnnc23)c1 [Compound 33] : IC50 value = 1 to 10 nM

// field: IC50; key: COc1cc(OC)c(Cl)c(-c2cc3cnc(Nc4ccc(N5CC[N+]6(O)CCC[C@@H]6C5)cc4)nc3n3cnnc23)c1 (stereo partly shown) [Compound 100] ; value = 10 to 100 nM

Kindly note the recorded IC50 for C=CC(=O)N1CCN(CCCc2nc3c(-c4c(Cl)c(OC)cc(OC)c4Cl)cc4cnc(NCC(F)(F)F)nc4n3n2)CC1 [Compound 137] , which is 1 to 10 nM

The measured IC50 associated with C=CC(=O)N1C[C@@H](C)N(CCCc2nc3c(-c4c(Cl)c(OC)cc(OC)c4Cl)cc4cnc(NC)nc4n3n2)[C@@H](C)C1 [Compound 131] reads 10 to 100 nM

Lab note: measured IC50 of CNc1ncc2cc(-c3c(Cl)c(OC)cc(OC)c3Cl)c3nc(CCCN4CCN(C(=O)C(C#N)=CC(C)(C)C)CC4)nn3c2n1 [Compound 148] was > 100 nM

Value of measured IC50 for the entry COc1cc(OC)c(Cl)c(-c2cc3cnc(Nc4ccc(N5CCN(C(C)C)CC5)cc4)nc3n3cnnc23)c1 [Compound 11] : < 1 nM

---

Please provide measured IC50 for the entries that follow.
target: FGFR1 (Homo sapiens (Human), UniProt P11362); assay: Kinase assay Method 1, mobility shift assay; conditions: read-out: IC50(nM) value of compounds FGFR1; mobility shift assay, ATP at Km; class symbols
Sequence (P11362 22-822): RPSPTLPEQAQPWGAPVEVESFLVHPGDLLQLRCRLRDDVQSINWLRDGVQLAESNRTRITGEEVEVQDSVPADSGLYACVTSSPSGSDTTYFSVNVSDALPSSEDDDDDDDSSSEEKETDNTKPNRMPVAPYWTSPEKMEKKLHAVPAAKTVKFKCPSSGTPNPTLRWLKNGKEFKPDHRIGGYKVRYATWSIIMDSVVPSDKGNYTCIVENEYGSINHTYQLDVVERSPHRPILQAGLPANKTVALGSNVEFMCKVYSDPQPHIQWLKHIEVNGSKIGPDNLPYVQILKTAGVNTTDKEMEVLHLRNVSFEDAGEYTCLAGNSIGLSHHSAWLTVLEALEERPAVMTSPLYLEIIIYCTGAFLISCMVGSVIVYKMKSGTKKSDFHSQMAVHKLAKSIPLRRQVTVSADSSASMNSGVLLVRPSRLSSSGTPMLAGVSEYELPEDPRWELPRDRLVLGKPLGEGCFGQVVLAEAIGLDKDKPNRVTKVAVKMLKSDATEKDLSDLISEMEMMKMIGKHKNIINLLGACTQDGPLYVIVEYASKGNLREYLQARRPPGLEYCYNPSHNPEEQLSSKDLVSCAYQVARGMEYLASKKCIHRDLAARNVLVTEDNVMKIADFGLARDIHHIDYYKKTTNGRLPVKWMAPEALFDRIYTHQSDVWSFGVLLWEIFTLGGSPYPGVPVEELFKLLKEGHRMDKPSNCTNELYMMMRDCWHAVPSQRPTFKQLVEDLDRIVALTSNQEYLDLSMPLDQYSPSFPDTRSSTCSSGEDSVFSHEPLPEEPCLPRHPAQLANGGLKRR

# IC50 (molecule: COc1cc(OC)c(Cl)c(-c2cc3cnc(Nc4ccc(N5CCN(C)CC5)cn4)nc3n3cnnc23)c1 [Compound 16] ) is > 10 nM

Noted for COc1cc(OC)c(Cl)c(-c2cc3cnc(Nc4ccc(N(C)CCN(C)C)cc4)nc3n3cnnc23)c1 [Compound 21] : its IC50 reads < 1 nM

Documented IC50 of COc1cc(OC)c(Cl)c(-c2cc3cnc(Nc4ccc(C5CCNCC5)c(C)c4)nc3n3cnnc23)c1 [Compound 52] : < 1 nM

So, CCN1CCN(Cc2ccc(Nc3ncc4cc(-c5cc(OC)cc(OC)c5Cl)c5nncn5c4n3)nc2)CC1 [Compound 17] ? Its IC50 was > 10 nM

Lab book: IC50 of COc1cc(OC)c(Cl)c(-c2cc3cnc(Nc4ccc(N5CCN(C)CC5)cc4)nc3n3cnnc23)c1 [Compound 15] noted as < 1 nM

So, COc1cc(OC)c(Cl)c(-c2cc3cnc(Nc4ccc(N5CCN(C6CCCC6)CC5)cc4)nc3n3cnnc23)c1 [Compound 104] ? Its IC50 was < 1 nM

The recorded IC50 for entry COc1cc(OC)c(Cl)c(-c2cc3cnc(Nc4ccc(N5CCN(C(C)=O)CC5)cc4)nc3n3cnnc23)c1 [Compound 106] equals < 1 nM

GET /value?item= C=CC(=O)Nc1ccc(Cc2nc3c(-c4cc(OC)cc(OC)c4Cl)cc4cnc(NCCN5CCOCC5)nc4n3n2)cc1 [Compound 112] &field=IC50 returns > 100 nM

Record CCN1CCN(c2ccc(Nc3ncc4cc(-c5c(Cl)c(OC)cc(OC)c5Cl)c5nncn5c4n3)cc2)CC1 [Compound 61] , field IC50: < 1 nM

CCC(=O)Nc1ccc(Cc2nnc3c(-c4cc(OC)cc(OC)c4Cl)cc4cnc(NCCN5CCOCC5)nc4n23)cc1 [Compound 96] yielded IC50 of > 100 nM

Form field IC50, entry COc1cc(OC)c(Cl)c(-c2cc3cnc(Nc4ccc(N5CCN(C)C(C)(C)C5)cc4)nc3n3cnnc23)c1 [Compound 26] : < 1 nM

---

Can you tell me IC50 for the items I'm about to list?
target: FGFR2 (Homo sapiens (Human)); assay: Kinase assay Method 1, mobility shift assay; type: biochemical; conditions: ATP at Km, read-out: IC50(nM) value of compounds FGFR2
Please respond with the number in nM and leave the unit unwritten.

Short answer for COc1cc(OC)c(Cl)c(-c2cc3cnc(Nc4ccc(N5CCN6CCC[C@@H]6C5)cc4)nc3n3cnnc23)c1Cl [Compound 64] : IC50 was 2.7

Quick note, IC50 for COc1cc(OC)c(Cl)c(-c2cc3cnc(Nc4ccc(N5CCN6CCOC[C@@H]6C5)cc4)nc3n3cnnc23)c1 [Compound 42] landed at 1.3

GET /value?item= COc1cc(OC)c(Cl)c(-c2cc3cnc(Nc4ccc(N5CCN6CCC[C@@H]6C5)cc4)nc3n3cnnc23)c1 [Compound 24] &field=IC50 returns 1.8

---

test system: NCI-H1581 (human non-small cell lung cancer cells); assay: Cell proliferation assay, CellTiter Glo (Table 9); assay type: cell-based; conditions: 96 hrs
value kind: IC50 (nM)
Respond with the bare value in nM.

Please fill in: IC50 reported for COc1cc(OC)cc(N(CCNC(C)C)c2ccc3ncc(-c4cnn(C)c4)nc3c2)c1 = 1.5

---

test system: NCI-H1581 cells; test: Cell proliferation assay on NCI-H1581 (Table 7); type: cell-based, human; settings: Homo sapiens, NCI-H1581; CellTiter 96 AQueous (144 hrs) or CellTiter Glo (96 hrs); class symbols; read-out: IC50(nM) value of compounds on NCI-H1581 cells
Give IC50 for every item shown.

Data point: COc1cc(OC)c(Cl)c(-c2cc3cnc(Nc4ccc(N5CCN(C(=O)N(C)C)CC5)cc4)nc3n3cnnc23)c1 ; IC50 = 1 to 10 nM

Reported IC50 ( CNC1CCN(c2ccc(Nc3ncc4cc(-c5cc(OC)cc(OC)c5Cl)c5nncn5c4n3)cc2)CC1 ) = < 1 nM

Entry COc1cc(OC)c(Cl)c(-c2cc3cnc(Nc4ccc(N5CCN(CCO)CC5)cc4)nc3n3cnnc23)c1 , IC50 reported as 1 to 10 nM

The value of IC50 measured for the compound C=CC(=O)N1CCN(Cc2nc3c(-c4cc(OC)cc(OC)c4Cl)cc4cnc(NC)nc4n3n2)CC1 turned out to be 10 to 100 nM

So for COc1cc(OC)c(Cl)c(-c2cc3cnc(Nc4ccc(N5CCC(N(C)C)CC5)cc4)nc3n3cnnc23)c1 , the logged IC50 turned out to be < 1 nM

Record summary for COc1cc(OC)c(Cl)c(-c2cc3cnc(Nc4ccc(N5CCN(C)CC5)cn4)nc3n3cnnc23)c1 : reported IC50 = 10 to 100 nM

Lab note: measured IC50 of COc1cc(OC)c(Cl)c(-c2cc3cnc(Nc4ccc(N5CCN(C(C)=O)CC5)cc4)nc3n3cnnc23)c1 was 1 to 10 nM

---

test system: NCI-H1581 cells; assay: Cell proliferation assay on NCI-H1581 (Table 7); assay type: cell-based, human; conditions: Homo sapiens, NCI-H1581; CellTiter 96 AQueous (144 hrs) or CellTiter Glo (96 hrs); class symbols; read-out: IC50(nM) value of compounds on NCI-H1581 cells
value kind: IC50

# IC50 measured on NCI-H1581 cells for item COc1cc(OC)c(Cl)c(-c2cc3cnc(Nc4ccc(N5CC6(CN(C(=O)N(C)C)C6)C5)cc4)nc3n3cnnc23)c1 = 10 to 100 nM

Item C=CC(=O)N1CCN(CCc2nnc3c(-c4cc(OC)cc(OC)c4Cl)cc4cnc(NC)nc4n23)CC1 ; assay system NCI-H1581 cells; IC50 reported as > 100 nM

NCI-H1581 cells assay, compound CC[N+]1([O-])CCN(c2ccc(Nc3ncc4cc(-c5cc(OC)cc(OC)c5Cl)c5nncn5c4n3)cc2)CC1 , recorded IC50 = 1 to 10 nM

// assay NCI-H1581 cells, entry C=CC(=O)N1CCN(CCCc2nnc3c(-c4cc(OC)cc(OC)c4Cl)cc4cnc(NC)nc4n23)CC1 , IC50 value = 10 to 100 nM

Record COc1cc(OC)c(Cl)c(-c2cc3cnc(Nc4ccc(N5CC(=O)N6CCC[C@@H]6C5)cc4)nc3n3cnnc23)c1 / NCI-H1581 cells, IC50 recorded as > 100 nM

Tested on NCI-H1581 cells, the item Cc1nc2ccc(-c3cc4cnc(Nc5ccc(N6CCOCC6)cc5)nc4n4cnnc34)c(Cl)c2[nH]1 showed IC50 equal to > 100 nM

Tested on NCI-H1581 cells: CCN1CCN(Cc2ccc(Nc3ncc4cc(-c5cc(OC)cc(OC)c5Cl)c5nncn5c4n3)nc2)CC1 . Observed IC50: 10 to 100 nM

Tested on NCI-H1581 cells, the item COc1cc(OC)c(Cl)c(-c2cc3cnc(Nc4ccc(N5CCN(C)C(C)(C)C5)cc4)nc3n3cnnc23)c1 showed IC50 equal to < 1 nM

Value (IC50, NCI-H1581 cells) for record CCN1CCN(c2ccc(Nc3ncc4cc(-c5c(Cl)c(OC)cc(OC)c5Cl)c5nncn5c4n3)cc2)CC1 = < 1 nM

Item COc1cc(OC)c(Cl)c(-c2cc3cnc(Nc4ccc(N5CCN(C)CC5)cc4)nc3n3cnnc23)c1 was tested on NCI-H1581 cells; the reported IC50 is < 1 nM
